- Test target: RSV A2 pre-F (RSV A2)
- Method notes: BLI
Listing of entries alongside the reported Kd.

- Binder: "F6-70 (antibody, V domains shown) VH: QVQLVESGGGVVQPGRSLRLSCAASGFTFKNFAMHWVRQAPGKGLEWVAAVSYDGTSKYQADSVKGRFTISRDNSKNTLYLQMNSLRAEDTAVYYCARVESSGSGHYSYLGYFYCMDVWGKGTTVTVSS VL: QSALTQPASVSASPGQSITISCTGTRNDVGGYEYVSWYQQHPDKAPKLMIFDVSNRPSGVSNRFSGSKSGNTASLTISGLQAEDEADYYCSSYTINNTLVFGGGTKVTVL"
  Censor symbol: "="
  Kd (nM): 2.11
- Binder: "F6-124 (antibody, V domains shown) VH: QVQLVQSGTEVKKPGASVKISCKASGYTFTGNAINWVRQAPGQGLEWLGWISVNNGNTKYVQKFQGRVTMTTDTSTSTAYMELRSLGSDDTAVYYCAREVVNYGSGSLNFDSWGQGTLVTVSS VL: SYELTQPPSVSVSPGQTVSISCSGDKLGNDYVSWYQQKPGQSPVLVIYEDSKRPSGIPERFSGSNSGNTATLTISGTQAMDESDYYCQAWDGSTVIFGGGTKLTVL"
  Censor symbol: "<"
  Kd (nM): 0.001
- Binder: "F6-207 (antibody, V domains shown) VH: QITLKESGPTLLKPTQTLTLTCTFSGFSLTTTGVAVGWVRQPPGKALEWLALIYWDDDKRYSPSLKSRVTITKDTSKNQVLLAMTDMDPVDTATYYCAHFDYGDPEVVALFEYSYYMDVWGKGITVTVSS VL: QSVLTQPPSVSGTPGQRVTISCSGSSSNIGSNYVYWYQHLPGTAPKLLIYTNNRRPSGVPDRFSGSKSGTSASLAVSGLRSEDEADYFCAVWDDSVGGHWVFGGGTKLTVL"
  Censor symbol: "="
  Kd (nM): 0.291
- Binder: "F6-141 (antibody, V domains shown) VH: QVQLAQSGAEVRRPGTSVKVSCRSSAYDFIDDSIHWVRQAPGQGLEWMGRIDPSGDTTTYAPQFQVRITLTRDTSTSTASMELNRLTSQDTAMYYCVAYERATTLAGVGASDVWGQGTWVTVSS VL: DIVMTQSPLSLSVTPGEPASISCRSSQSLLYRDGYNYLDWYLQKPGQSPQLLLYFASYRASGVPDRFSGSGSGTDFTLTITRVEPEDVGIYYCMQSLQTPFTFGPGTKLDFK"
  Censor symbol: "<"
  Kd (nM): 0.001
